study-system: E. coli thymidylate kinase (TMPK) (Escherichia coli, UniProt P0A720)
Sequence (P0A720 whole entry): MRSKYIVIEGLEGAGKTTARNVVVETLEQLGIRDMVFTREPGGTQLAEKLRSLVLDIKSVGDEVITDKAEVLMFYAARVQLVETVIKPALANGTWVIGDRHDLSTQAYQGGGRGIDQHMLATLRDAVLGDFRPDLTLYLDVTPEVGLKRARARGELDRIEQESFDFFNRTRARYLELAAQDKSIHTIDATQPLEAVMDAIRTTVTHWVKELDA
assay: ATPlite luminescence assay, direction of ATP synthesis
Type: biochemical
measured-parameter: IC50

Please review the entries below; each comes with its answer.
COc1ccc(C=C2SC(=S)NC2=O)cc1O 2500 nM
COc1cc(C=C2SC(=S)NC2=O)ccc1O 500 nM
COc1cc(C=C2SC(=S)NC2=O)ccc1OC(C)=O 480 nM

Would you mind telling me what IC50 value was observed for CCOc1cc(C=C2SC(=S)NC2=O)ccc1OC(C)=O ? 470 nM

====

Form field: IC50 (one value per entry).
study-system: E. coli thymidylate kinase (TMPK) (Escherichia coli, UniProt P0A720)
assay: ATPlite luminescence assay, direction of ATP synthesis
Type: biochemical
Please respond with the number in nM and leave the unit unwritten.

As a guide, the following entries are already answered.
COc1cc(C=C2SC(=S)NC2=O)cc(OC)c1O 250
COc1cc(C=C2SC(=S)NC2=O)ccc1OC(C)C 390
CCOC(=O)COc1ccc(C=C2SC(=S)NC2=O)cc1OC 680
C=CCOc1cccc(C=C2SC(=S)NC2=O)c1 1000

API: the following record is the query input.
Look up IC50: CCOc1ccc(C=C2SC(S)=NC2=O)cc1OC 410
